Entry source: BigSolDB 2.1

# test settings: in diethyl ether, 305.15 K
reported property: solubility (mole fraction)

Lab note: measured solubility (mole fraction) of `O=P(O)(CO)c1ccccc1` was 0.00238

---

# test settings: in acetonitrile, 298.17 K
Examples of compounds with documented solubility (mole fraction) follow.
# output: bare number, no unit

O=P1(Oc2ccccc2)OCC2(CO1)COP(=O)(Oc1ccccc1)OC2 (configuration not stated)	0.00187

From here, focus on the item given below.
# solubility (mole fraction) (compound: `O=C(O)CCP(=O)(O)c1ccccc1` ) is 0.0001

---

Catalogue of solubility (mole fraction) values
# test settings: in 2-butanone, 328.16 K
Write the number on its own, no unit after it.

O=P1(O)OCC2(CO1)COP(=O)(O)OC2 (configuration not stated)	0.0016

Moving on to the next compound.
Kindly note the recorded solubility (mole fraction) for `O=C(O)CCP(=O)(O)c1ccccc1` , which is 0.00316

---

# test settings: in benzene, 293.17 K
reported property: solubility (mole fraction)
Note: the reply should be a number with no unit written.

Per the record, O=P1(Oc2ccccc2)OCC2(CO1)COP(=O)(Oc1ccccc1)OC2 (stereo unspecified) has solubility (mole fraction) of 0.00119

---

# test settings: in ethanol, 318.16 K
reported property: solubility (mole fraction)
# output: bare number, no unit

Record summary for O=P1(Oc2ccccc2)OCC2(CO1)COP(=O)(Oc1ccccc1)OC2 (stereo unspecified) : reported solubility (mole fraction) = 0.00246

---

# test settings: in acetone, 323.25 K
reported property: solubility (mole fraction)

Measured solubility (mole fraction), O=P1(Oc2ccccc2)OCC2(CO1)COP(=O)(Oc1ccccc1)OC2 (stereo unspecified) : 0.00542

---

# test settings: in pyridine, 298.35 K
reported property: solubility (mole fraction)

# solubility (mole fraction) (compound: O=P1(Oc2ccccc2)OCC2(CO1)COP(=O)(Oc1ccccc1)OC2 (stereo unspecified) ) is 0.00885

---

# test settings: in acetone, 305.35 K
reported property: solubility (mole fraction)
Respond with the number and no other words.

Noted for O=P1(O)OCC2(CO1)COP(=O)(O)OC2 (stereo unspecified) : its solubility (mole fraction) reads 0.0047

---

# test settings: in toluene, 333.16 K
reported property: solubility (mole fraction)

`O=P(O)(CO)c1ccccc1` yielded solubility (mole fraction) of 0.0033

---

# test settings: in acetonitrile, 317.35 K
reported property: solubility (mole fraction)
Number, no unit, nothing else.

The reported solubility (mole fraction) of the molecule O=P1(O)OCC2(CO1)COP(=O)(O)OC2 (stereo unspecified) was 0.0012

---

# test settings: in 2-butanone, 328.17 K
Each entry below carries its recorded solubility (mole fraction).
Would you mind answering with just the numeric figure?

Examples with answers:
O=P(O)(CO)c1ccccc1	0.0033
COc1ccc(P(=O)(c2ccc(OC)cc2)c2ccc(OC)cc2)cc1	0.0139

Now let's try a different one.
Lookup result for `COc1ccc(P(c2ccc(OC)cc2)c2ccc(OC)cc2)cc1` ; measured solubility (mole fraction): 0.0113

---

# test settings: in 1,4-dioxane, 328.16 K
reported property: solubility (mole fraction)
Lab note: jot down the number only; don't add units.

// field: solubility (mole fraction); key: O=P1(O)OCC2(CO1)COP(=O)(O)OC2 (stereo unspecified) ; value = 0.00055

---

# test settings: in acetone, 309.15 K
reported property: solubility (mole fraction)
Could you respond with only the numeric value?

response.value for O=P1(O)OCC2(CO1)COP(=O)(O)OC2 (stereo unspecified) (field: solubility (mole fraction)) = 0.005
